Values were extracted from paper PMC7826789.

# Test system: TIE1
# Condition Details: Compound Concentration (nM):1000;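 further: KINOMEscan scanMAX binding as percent activity remaining versus control; lower means stronger binding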
# Percent Control listing for each entry below
Please respond with the number in % and leave the unit unwritten.

The following compounds have reported results that may help.
CC1=C(C(=O)Nc2ccc3[nH]ncc3c2)C(c2ccc3ccccc3c2)CC(=O)N1 (stereo not shown) [GSK270822A] | 80
CN1CCN(C(=O)c2ccc(NC(=O)Nc3ccc(N(C)c4ccnc(Nc5ccc(CS(C)(=O)=O)cc5)n4)cc3)cc2)CC1.Cl [GW830263A] | 8.3
NS(=O)(=O)c1ccc(N/N=C2\C(=O)Nc3ccc(C(=O)NCCc4c[nH]cn4)cc32)cc1 [GW300660X] | 100

Quick note, Percent Control for Cl.O=S1CCN(Cc2ccc(-c3ccc4ncnc(Nc5ccc(OCc6ccccc6)c(F)c5)c4c3)o2)CC1 [GW576924A] landed at 100

###

# System: RIPK4
# Condition Details: Compound Concentration (nM):1000
Threshold check on Percent Control: strictly below 90% is Fulfilled; on or above 90% is Not fulfilled.

Worked cases, answers included:
Cc1cc(O)cc(C)c1/C=C/c1cncc(C(N)=O)c1 [GW435821X] | Not fulfilled
COc1ccc2[nH]c3c4[nH]c5ccc(OC)cc5c4c4c(c3c2c1)C(=O)NC4=O [GW296115X] | Fulfilled
CN1CCN(C(=O)c2ccc(NC(=O)Nc3ccc(N(C)c4ccnc(Nc5ccc(CS(C)(=O)=O)cc5)n4)cc3)cc2)CC1.Cl [GW830263A] | Fulfilled

Lab note: confirm whether the reported Percent Control for this molecule is below 90%, equality not counting. molecule: Cl.c1ccc(Cc2nc3ccc(Nc4ncnc5ccccc45)cc3[nH]2)cc1 [GR269666A]
Not fulfilled

Lab note: confirm whether the reported Percent Control for this molecule is below 90%, equality not counting. molecule: C[C@@H](Oc1cc(-n2cnc3ccc(OC4CCN(C)CC4)cc32)sc1C(N)=O)c1ccccc1Cl [GSK579289A]
Fulfilled

Lab note: confirm whether the reported Percent Control for this molecule is below 90%, equality not counting. molecule: CC1=C(C(=O)Nc2ccc3[nH]ncc3c2)C(c2ccc3ccccc3c2)CC(=O)N1 (centres unmarked) [GSK270822A]
Fulfilled

###

# System: ANKK1
# Condition Details: Compound Concentration (nM):1000
# Percent Control listing for each entry below
Please respond with the number in % and leave the unit unwritten.

CN1CCN(C(=O)c2ccc(NC(=O)Nc3ccc(N(C)c4ccnc(Nc5ccc(CS(C)(=O)=O)cc5)n4)cc3)cc2)CC1.Cl [GW830263A] | 28
Cl.O=S1CCN(Cc2ccc(-c3ccc4ncnc(Nc5ccc(OCc6ccccc6)c(F)c5)c4c3)o2)CC1 [GW576924A] | 88

Quick note, Percent Control for CC1=C(C(=O)Nc2ccc3[nH]ncc3c2)C(c2ccc3ccccc3c2)CC(=O)N1 (stereo not shown) [GSK270822A] landed at 100

Quick note, Percent Control for CN(C)c1cc2c(Nc3ccc4c(cnn4Cc4ccccc4)c3)ncnc2cn1 [GW282974X] landed at 100

Quick note, Percent Control for NS(=O)(=O)c1ccc(N/N=C2\C(=O)Nc3ccc(C(=O)NCc4ccncc4)cc32)cc1 [GW300657X] landed at 27

Quick note, Percent Control for COc1ccc2cc(-c3c(-c4ccncc4)nc(-c4ccc(S(C)(=O)=O)cc4C)n3C)ccc2c1 landed at 100

Quick note, Percent Control for CC1=C(C(=O)Nc2ccc3[nH]ncc3c2)C(c2ccc(Cl)c(Cl)c2)CC(=O)N1 (stereo not shown) [GSK299115A] landed at 100

###

# Percent Control listing for each entry below
# Tested on: IGF1R
# Condition Details: Compound Concentration (nM):1000
Please respond with the number in % and leave the unit unwritten.

NS(=O)(=O)c1ccc(N/N=C2\C(=O)Nc3ccc(-c4cnco4)cc32)cc1 | 83
Cl.c1ccc(Cc2nc3ccc(Nc4ncnc5ccccc45)cc3[nH]2)cc1 [GR269666A] | 100

Next item in the queue.
Quick note, Percent Control for CCS(=O)(=O)c1ccc(OC)c(Nc2ncc(-c3cccc(F)c3)o2)c1 [GW621970X] landed at 100

###

# Percent Control listing for each entry below
# System: ULK2
# Condition Details: Compound Concentration (nM):1000
Please respond with the number in % and leave the unit unwritten.

Quick note, Percent Control for NS(=O)(=O)c1ccc(N/N=C2\C(=O)Nc3ccc(C(=O)NCCc4c[nH]cn4)cc32)cc1 [GW300660X] landed at 37

###

# Percent Control listing for each entry below
# Test system: LOK
# Construct: gene STK10
# Condition Details: Compound Concentration (nM):1000
Please respond with the number in % and leave the unit unwritten.

The following molecules have reported results that may help.
Cl.O=C(Nc1ccc(Oc2ccc3[nH]c(NC(=O)c4ccco4)nc3c2)cc1)Nc1cc(C(F)(F)F)ccc1F [GW683134A] | 0.1
CN(C)CCNC(=O)Nc1ccc(N(C)c2ccnc(Nc3ccc(CS(C)(=O)=O)cc3)n2)cc1.Cl [GW830900A] | 14
Cl.O=S1CCN(Cc2ccc(-c3ccc4ncnc(Nc5ccc(OCc6ccccc6)c(F)c5)c4c3)o2)CC1 [GW576924A] | 100
O=C(Nc1n[nH]c2nc(-c3ccc(O)cc3)c(Br)cc12)C1CC1 [SB-725317] | 95
COc1cc2ncnc(Nc3ccc4c(cnn4Cc4ccccc4)c3)c2cc1OC.Cl [GW282449A] | 13
CC1=C(C(=O)Nc2ccc3[nH]ncc3c2)C(c2ccc3ccccc3c2)CC(=O)N1 (stereo not drawn) [GSK270822A] | 100

Quick note, Percent Control for NS(=O)(=O)c1ccc(N/N=C2\C(=O)Nc3ccc(C(=O)NCCc4c[nH]cn4)cc32)cc1 [GW300660X] landed at 100

Quick note, Percent Control for C[C@@H](Oc1cc(-n2cnc3ccc(OC4CCN(C)CC4)cc32)sc1C(N)=O)c1ccccc1Cl [GSK579289A] landed at 3.3

Quick note, Percent Control for Nc1ncnc2occ(-c3ccc(NC(=O)Nc4cc(C(F)(F)F)ccc4F)cc3)c12 [GW770249X] landed at 0.4

Quick note, Percent Control for NS(=O)(=O)c1ccc(Nc2ncc(-c3ccccc3)o2)cc1 [GW572399X] landed at 100

Quick note, Percent Control for CN1CCN(C(=O)c2ccc(NC(=O)Nc3ccc(N(C)c4ccnc(Nc5ccc(CS(C)(=O)=O)cc5)n4)cc3)cc2)CC1.Cl [GW830263A] landed at 0.4

Quick note, Percent Control for NS(=O)(=O)c1ccc(N/N=C2\C(=O)Nc3ccc(C(=O)NCc4ccncc4)cc32)cc1 [GW300657X] landed at 100

Quick note, Percent Control for Cc1cc(O)cc(C)c1/C=C/c1cncc(C(N)=O)c1 [GW435821X] landed at 100

Quick note, Percent Control for COC(=O)Nc1nc2ccc(Oc3ccc(NC(=O)Nc4cc(C(F)(F)F)ccc4F)cc3)cc2s1.Cl [GW693917A] landed at 0.6

Quick note, Percent Control for COc1cccc(-n2ncc3c(N/N=C/c4ccncc4)ncnc32)c1 [GW784752X] landed at 100

Quick note, Percent Control for COc1cc(C)c(N(C)C(=O)CN(C)C)cc1Nc1nc(Nc2cccc(F)c2C(N)=O)c2cc[nH]c2n1 [GSK2219385] landed at 100

###

# System: RIPK2
# Condition Details: Compound Concentration (nM):1000
Measured Endpoint: Percent Control (%)
Please respond with the number in % and leave the unit unwritten.

The following molecules have reported results that may help.
CC1=C(C(=O)Nc2ccc3[nH]ncc3c2)C(c2ccc3ccccc3c2)CC(=O)N1 (stereo not drawn) [GSK270822A] | 90
COc1ccc2c(-c3ccnc(Nc4cccc(OC(F)(F)F)c4)n3)cnn2n1 [GW810372X] | 100
COc1cccc(-n2ncc3c(N/N=C/c4ccncc4)ncnc32)c1 [GW784752X] | 38
NS(=O)(=O)c1ccc(N/N=C2\C(=O)Nc3ccc(Cl)cc32)cc1 [GW280670X] | 100
CN(C)CCNC(=O)Nc1ccc(N(C)c2ccnc(Nc3ccc(CS(C)(=O)=O)cc3)n2)cc1.Cl [GW830900A] | 94
C/C(Nc1ccc(S(N)(=O)=O)cc1)=C1/C(=O)Nc2ccccc21 [GW335962X] | 83
COc1cc(C)c(N(C)C(=O)CN(C)C)cc1Nc1nc(Nc2cccc(F)c2C(N)=O)c2cc[nH]c2n1 | 100
Cl.O=S1CCN(Cc2ccc(-c3ccc4ncnc(Nc5ccc(OCc6ccccc6)c(F)c5)c4c3)o2)CC1 [GW576924A] | 43
COc1cc2ncnc(Nc3ccc4c(cnn4Cc4ccccc4)c3)c2cc1OC.Cl [GW282449A] | 27
CCS(=O)(=O)c1ccc(OC)c(Nc2ncc(-c3cccc(F)c3)o2)c1 [GW621970X] | 57

Quick note, Percent Control for NS(=O)(=O)c1ccc(Nc2ncc(-c3ccccc3)o2)cc1 [GW572399X] landed at 100

Quick note, Percent Control for O=C(Nc1n[nH]c2nc(-c3ccc(O)cc3)c(Br)cc12)C1CC1 landed at 100

Quick note, Percent Control for Cc1cc(O)cc(C)c1/C=C/c1cncc(C(N)=O)c1 [GW435821X] landed at 21

Quick note, Percent Control for Cl.O=C(O[C@H]1CN[C@H](C#Cc2cc3ncnc(Nc4ccc5c(cnn5Cc5ccccc5)c4)c3s2)C1)N1CCOCC1 [GSK200398A] landed at 16

Quick note, Percent Control for COC(=O)Nc1nc2ccc(Oc3ccc(NC(=O)Nc4cc(C(F)(F)F)ccc4F)cc3)cc2s1.Cl [GW693917A] landed at 25
